# System: Noggin (protein binding on small-molecule microarray)
# EXPERIMENT_SUMMARY: Noggin binders on small-molecule microarray, primary screen, biochemical, 635/667 nm fluorescence (AID 1095);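 further: score merges 667 nm feature fluorescence with signal to noise over triplicate slides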
# SETUP_CONDITIONS: 635 nm fluorescence, higher = more signal
MEASUREMENT_KIND: composite z-score

[[record]]
compound = "CC(C)C[C@@H]1NC(=O)[C@@H]2C[C@H](C(=O)NCCCC[N+](C)(C)C)[C@H](c3ccc(O)cc3)N2C1=O"
reported = 1.91

[[record]]
compound = "CCN(CC)c1ccc(N2CC=CC34O[C@@H]5C=CCOC(=O)[C@@H]5[C@H]3C(=O)N(CCO)[C@@H]4C2=O)cc1 (some centres undefined)"
reported = -1.35

[[record]]
compound = "C=C(CC1([C@@H](NP(=O)(c2ccccc2)c2ccccc2)[C@H]2C[C@@H]2CCN(C(=O)OCC)S(=O)(=O)c2ccc(C)cc2)CC1)c1ccccc1"
reported = 0.229

[[record]]
compound = "CC(c1ccccc1)C(O)C1C=CC2C(=O)N(c3ccccc3)C(=O)C2N1Nc1ccc(C#N)cc1 (centres undefined)"
reported = 0.562


====

# TARGET_OR_TEST_SYSTEM: Luciferin 4-monooxygenase (Photinus pyralis) (UniProt P08659)
# Sequence (P08659 whole entry, looked up): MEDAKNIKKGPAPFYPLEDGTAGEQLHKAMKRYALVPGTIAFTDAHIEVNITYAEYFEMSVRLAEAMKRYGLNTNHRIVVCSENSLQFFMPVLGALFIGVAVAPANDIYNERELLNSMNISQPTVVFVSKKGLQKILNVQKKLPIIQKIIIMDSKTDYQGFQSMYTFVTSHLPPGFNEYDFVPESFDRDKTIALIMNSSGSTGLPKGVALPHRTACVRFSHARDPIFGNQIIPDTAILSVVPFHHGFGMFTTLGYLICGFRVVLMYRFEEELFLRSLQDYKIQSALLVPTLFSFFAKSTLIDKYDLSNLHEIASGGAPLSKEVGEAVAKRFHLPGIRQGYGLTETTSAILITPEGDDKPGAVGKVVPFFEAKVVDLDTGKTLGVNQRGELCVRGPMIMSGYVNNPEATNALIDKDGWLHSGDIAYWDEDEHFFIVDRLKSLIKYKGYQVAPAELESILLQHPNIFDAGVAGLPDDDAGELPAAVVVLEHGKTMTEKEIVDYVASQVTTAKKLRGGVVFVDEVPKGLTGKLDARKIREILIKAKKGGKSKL
# EXPERIMENT_SUMMARY: firefly luciferase enzyme inhibitors, primary screen, biochemical, luminescence, purified enzyme, 2006 set (AID 1141);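 further: cell-free assay with purified firefly luciferase at 100 ng per well in PBS; test concentration not given here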
# SETUP_CONDITIONS: SteadyGlo luminescence, 30 min, higher = more signal, called active from +8 up or from −8 down
The source made the active and inactive calls.
The entries below come with measured z-score values attached.
MEASUREMENT_KIND: z-score

[[record]]
compound = "C=CC[C@]1(C(=O)OC)N=C(c2ccc(OCCCO)cc2)O[C@H]1c1ccccc1N=[N+]=[N-]"
reported = "-11 (active)"

[[record]]
compound = "CCCCNC(=O)c1ccc(C#C[Si](C)(C)C)c(OC(C)=O)c1"
reported = "0.229 (inactive)"

[[record]]
compound = "CCOC(=O)C[C@H]1[C@H](OC(=O)c2ccc(-c3ccccc3)cc2)[C@@H](NC(=O)c2ccc3ccccc3c2)c2cc(OCCCO)ccc2N1C(=O)c1ccccc1"
reported = "0.61 (inactive)"

[[record]]
compound = "O=C1O[C@H](c2ccccc2)[C@H](c2ccccc2)N2[C@H]1[C@@H](C(=O)N1CCN(c3ncccn3)CC1)[C@]1(C(=O)Nc3ccccc31)[C@H]2c1ccc(O)cc1"
reported = "-1.3 (inactive)"

[[record]]
compound = "O=C1O[C@@H](c2ccccc2)[C@@H](c2ccccc2)N2[C@@H](c3ccc(OCCO)cc3)[C@]3(C(=O)Nc4ccc(C#CCCO)cc43)[C@@H](C(=O)Nc3nc4ccccc4s3)[C@H]12"
reported = "-0.7 (inactive)"

[[record]]
compound = "C[C@H]1NC(=O)C([C@@H](C)OCc2ccccc2)NC(=O)[C@@]23C(=O)N[C@@H](Cc4ccccc4)C2[C@H](C)[C@@]2(C)O[C@H]2C3/C=C/C/C=C\\CNC1=O (stereo partly specified)"
reported = "-1.02 (inactive)"


====

The entries below come with measured z-score values attached.
# EXPERIMENT_SUMMARY: P. aeruginosa biofilm formation inhibitors, primary screen, PAO1 strain, BacTiter-Glo luminescence, LB-PBS (AID 1144)
# SETUP_CONDITIONS: 12 h, higher = more signal
MEASUREMENT_KIND: z-score

[[record]]
molecule = "CCOC(=O)C1=CC[C@@H](c2ccccc2)N(S(=O)(=O)C[Si](C)(C)C)[C@H]1c1ccccc1"
measurement_kind = "z-score"
reported = -0.667

[[record]]
molecule = "C[N+](C)(C)CCCC[C@@H]1NC(=O)[C@H]2C[C@@H](C(=O)NCCCCCNC(=O)CS)[C@@H](c3ccc(O)cc3)N2C1=O"
measurement_kind = "z-score"
reported = -1.39

[[record]]
molecule = "COc1ccc([Si](C)(C)[C@H]2[C@H](CCO)O[C@@]3(C(=O)N(Cc4ccccc4)c4ccc(N(C=O)c5ccccc5)cc43)[C@@H]2C)cc1"
measurement_kind = "z-score"
reported = -0.862

[[record]]
molecule = "CN(C)CCCCNC(=O)[C@H]1C[C@H]2C(=O)NCC(=O)N2[C@H]1c1cccc(OCCO)c1"
measurement_kind = "z-score"
reported = -0.254

[[record]]
molecule = "C=CCC(OC(C)=O)[C@@H]1[C@@H](N(Cc2cc3ccccc3o2)C(=O)c2cccc3ccccc23)c2cc(OCCCO)ccc2N1C(=O)c1ccc2ccccc2c1 (stereo partly specified)"
measurement_kind = "z-score"
reported = 0.26

[[record]]
molecule = "CCc1cccc(NC(=O)O[C@H]2[C@H](OC(=O)Nc3ccc4c(c3)OCO4)[C@H](OC(=O)Nc3ccc4c(c3)OCO4)[C@@H](OC)O[C@@H]2CO)c1"
measurement_kind = "z-score"
reported = -0.373

[[record]]
molecule = "[N-]=[N+]=NCc1ccccc1C[C@]1(C(=O)N2CCCCC2)N=C(c2ccc(OCCCO)cc2)O[C@H]1c1ccccc1"
measurement_kind = "z-score"
reported = -0.307

[[record]]
molecule = "COc1cccc(C[C@H]2C[C@@H](CO[Si](C(C)C)(C(C)C)C(C)C)N3C(=O)[C@@]4(C(C)=O)O[C@@]23[C@@H]2C(=O)N(C)C(=O)[C@@H]24)c1"
measurement_kind = "z-score"
reported = 0.333

[[record]]
molecule = "CC(c1ccccc1)C(O)C1C=CC2C(=O)N(c3ccccc3)C(=O)C2N1Nc1ccc(C#N)cc1 (stereo unspecified)"
measurement_kind = "z-score"
reported = -1.26

[[record]]
molecule = "C=C(COC)/C(=C/C[C@H](OC(=O)c1ccncc1)c1ccc(OCCO)cc1)c1cc(C(=O)OC)ccc1OC"
measurement_kind = "z-score"
reported = -0.999

[[record]]
molecule = "CC(=O)c1ccc(C(O)C2C=CC3C(=O)N(C)C(=O)C3N2NC(=O)OC(C)(C)C)cc1 (stereo unspecified)"
measurement_kind = "z-score"
reported = 0.626


====

# EXPERIMENT_SUMMARY: basal MM1S mitochondrial membrane potential changes, profiling panel, cell-based, JC-1 fluorescence, 24 h, 100 nL compound (AID 1170); further: test concentration not given here
# SETUP_CONDITIONS: higher = more signal
MEASUREMENT_KIND: z-score

[[record]]
compound = "CC(C)CNC(=O)[C@@H]1c2ccccc2C(=O)N(C(C)C)[C@H]1c1ccc(CO)cc1"
reported = -0.357

[[record]]
compound = "CN1C(=O)C2C(C1=O)C1C=C(c3ccc(CO)cc3)C2C(c2cccs2)N1C (stereo not drawn)"
reported = 0.172

[[record]]
compound = "Cc1c(NC(=O)/C(C#N)=C/c2ccc(Cl)cc2)c(=O)n(-c2ccccc2)n1C"
reported = -0.512

[[record]]
compound = "C=C(COC)/C(=C/C[C@H](OC(=O)c1ccncc1)c1cccc(OCCO)c1)c1cnc2ccccc2c1"
reported = -0.704

[[record]]
compound = "COCCCNC(=O)[C@@H]1c2ccccc2C(=O)N(C2CCCCC2)[C@H]1c1ccc(CO)cc1"
reported = -1.17

[[record]]
compound = "CC(C)C(=C=CC[C@@H](O)c1ccc(OCCO)cc1)CCO"
reported = -1.11

[[record]]
compound = "CC(C)=CCN(C(=O)C#Cc1ccccc1)[C@H](CO)c1ccccc1"
reported = -2.54

[[record]]
compound = "Cc1ccc(S[C@]2(C(=O)NCC(F)(F)F)CC(=O)N(C3CCCCC3)[C@@H]2c2ccc(CO)cc2)cc1"
reported = -0.42

[[record]]
compound = "COc1ccc(CCNC(=O)[C@@]2(Sc3ccc(C)cc3)CC(=O)N(Cc3cc(C(F)(F)F)cc(C(F)(F)F)c3)[C@@H]2c2ccc(CO)cc2)cc1"
reported = -0.145

[[record]]
compound = "O=C1C2C=CC(C(O)c3cccc(O)c3)N(Nc3ccccc3F)C2C(=O)N1c1ccccc1 (stereo not drawn)"
reported = -1.64

[[record]]
compound = "COc1ccc(NN2C(C(O)c3ccc(OC)cc3)C=CC3C(=O)N(C4CCCCC4)C(=O)C32)cc1 (stereo not drawn)"
reported = -1.44

[[record]]
compound = "COc1ccc(CC[C@H](O)c2cccc(OCC(=O)OC(C)(C)C)c2)cc1"
reported = -0.835

[[record]]
compound = "C=CC[C@@]1(C(=O)N(C)C)N=C(c2ccc(OCCCO)cc2)O[C@@H]1c1ccccc1"
reported = -0.491

[[record]]
compound = "COc1cc2c(cc1O)C(c1ccc(CN3CCCC3)cc1)N(Cc1ccc([N+](=O)[O-])o1)CC2 (stereo not drawn)"
reported = -0.307

[[record]]
compound = "CC(C)(C)N1CC=CC23O[C@@H]4/C=C\\CCCOC(=O)C4[C@H]2C(=O)N(CCCCCCO)[C@@H]3C1=O (stereo partly drawn)"
reported = -0.892

[[record]]
compound = "CN1C(=O)[C@]2(CCS(=O)(=O)c3ccccc3)N=C(c3ccc(OCCCO)cc3)O[C@@H]2c2ccccc21"
reported = 0.48

[[record]]
compound = "COCCOC(=O)N1C(=O)[C@@]2(c3cc(C#CC4(O)CCCCCC4)ccc31)[C@H](c1ccccc1OCCO)N1[C@H](c3ccccc3)[C@H](c3ccccc3)OC(=O)[C@H]1[C@@H]2C(=O)N1CCCCCCC1"
reported = -1.34

[[record]]
compound = "C=CC[C@]1(C(=O)OC)N=C(c2ccc(OCCCO)cc2)O[C@H]1c1ccccc1N=[N+]=[N-]"
reported = 0.676

